Values were extracted from ChEMBL document CHEMBL2380248.

- TEST_DETAILS: Stability of the compound in alpha-modified minimum essential medium at 10000 x IC50 up to 72 hrs in presence of fetal bovine serum
- Assay type: ADME
- ASSAY_CONTEXT: cattle
EXPERIMENTAL_READOUT: Stability

INPUT: Please look up its Stability: O=S(=O)(N[C@H]1CCC[C@@H]1S)c1ccc(Oc2ccccc2)cc1 (racemic)
OUTPUT: Stable

INPUT: Same again, this time with Cl.NCCCCCC(=O)N1C[C@H](NS(=O)(=O)c2ccc(Oc3ccccc3)cc2)[C@@H](S)C1 (racemic)
OUTPUT: Stable

INPUT: Repeat for the following compound: NC(=O)N1C[C@H](NS(=O)(=O)c2ccc(Oc3ccccc3)cc2)[C@@H](S)C1 (racemic)
OUTPUT: Stable

INPUT: And for CC(=O)NCCCCCC(=O)N1C[C@H](NS(=O)(=O)c2ccc(Oc3ccccc3)cc2)[C@@H](S)C1 (racemic) ?
OUTPUT: Stable
